B1: WDR41 (parent)
chain: HVGELIIWDALDWTMQAYERNFWD

Variants of: B1
PROTOCOL_DETAILS: protein stability index of a GFP-peptide fusion (GPS, HEK-293T) (PSI 1-6); higher = more stable;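 note: lentivirally expressed fusions sorted by FACS into six bins by GFP to DsRed ratio, PSI derived from sequencing read proportions per bin multiplied by bin number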
CONDITION_LABEL: c terminus: a fixed tail appended
Answer each item with its documented protein stability index.
Answer with the value's number alone.

q: Form field: reported protein stability index of L5N
a: 1.93

q: Please do the same for W23I as well.
a: 2.83

q: Let us now turn to H1R
a: 1.58

q: Field entry: D9W
a: 2.99

q: // same read-out, input: H1T
a: 2.01

q: Likewise for W23S ?
a: 1.82

q: Next variant up: D9P
a: 3.61

q: Now the variant A10N
a: 1.05

q: Same read-out for W8C ?
a: 1.88

q: How about this variant: A17I
a: 1.15

q: // same read-out, input: F22E
a: 3.79

q: What do you have for D9R ?
a: 2.69

q: Okay, and I7N ?
a: 2.19

q: Thanks! And W23K ?
a: 1.39

q: Again, but for I6P
a: 2.41

q: Try L11K next.
a: 2.67

q: Follow-up item: A17G
a: 1.81

q: And the next one, E4L ?
a: 2.92

q: // repeat for R20C and report
a: 1.24

q: Consider next the variant W23P in the same way.
a: 1.45

q: Thanks! And W23C ?
a: 1.71

q: Same thing, different variant: N21I
a: 2.9

q: Same for T14N
a: 1.42

q: And then I6R , what is it?
a: 1.55

q: Here is the next variant: V2L
a: 3.8

q: Same thing, different variant: W13Y
a: 2.84

q: Also check W8M
a: 2.85

q: Now consider L11D .
a: 1.77

q: Please do the same for A10S as well.
a: 1.63

q: What do you get for T14D ?
a: 1.68

q: E4Y , same question.
a: 3.22

q: Consider next the variant W23V in the same way.
a: 3.03

q: # iterate: I6S
a: 1.66

q: Now consider W8Q .
a: 1.98

q: Next record, please: R20K
a: 1.5

q: Subsequent entry: E4H
a: 2.13

q: And then G3K , what is it?
a: 2.06

q: # iterate: E19P
a: 1.72

q: # repeat for A17P
a: 1.76

q: Then this variant: I7C
a: 1.26

q: Item: W8P
a: 2.16

q: For I7M then?
a: 1.52

q: Same thing, different variant: L11A
a: 1.61

q: Let us now turn to R20T
a: 3.97

q: Now consider I7E and answer again.
a: 2.41

q: Same thing, different variant: I6E
a: 1.36

q: Another variant to check: M15G
a: 1.06

q: Try the variant R20G
a: 1.75

q: Check M15D too.
a: 1.76

q: Same thing, different variant: W13T
a: 1.97

q: Try this variant next: V2S
a: 2.47

q: And for R20N ?
a: 2.98

q: // query: G3L
a: 1.72

q: Entry L5A please
a: 1.95

q: Here is the next variant: Y18S
a: 1.07

q: Next: H1E
a: 1.27

q: Again, but for A17K
a: 2.09

q: Okay, and R20L ?
a: 3.16

q: Ok, now I6Q
a: 1.62

q: Thanks! And A10W ?
a: 3.36

q: Another variant to check: I6D
a: 1.81

q: How about D12Y ?
a: 1.11

q: // repeat for W13Q and report
a: 2.21

q: And what about the variant V2N ?
a: 1.48

q: Next variant: W13S
a: 3.29

q: Same lookup for G3E , please.
a: 1.87

q: How about this variant: L11N
a: 2.23

q: Again, but for N21L
a: 3

q: Here is the next variant: L5D
a: 2.17

q: Record: E4N
a: 2.42

q: Repeat for the following variant: D24E
a: 3.24

q: Try the variant I6N
a: 2.17

q: What about this variant? E19Q
a: 3.24

q: What would you report for D9K ?
a: 2.07

q: Next variant up: I6M
a: 2.35

q: Same for F22T
a: 3.49

q: Same thing, different variant: L11I
a: 3.82

q: // repeat for W13A and report
a: 1.98

q: Same again, this time with T14P
a: 2.28

q: Also G3R ?
a: 1.87

q: Please do the same for I7Q as well.
a: 2.11

q: Another variant to look at: Q16M
a: 2.63

q: Subsequent entry: W8R
a: 2.78

q: Let us now turn to I7L
a: 1.93

q: Field entry: L11H
a: 2.06

q: Entry to check: E19H
a: 2.77

q: Lookup D12P
a: 2.1

q: Follow-up item: F22S
a: 1.57

q: Same for W13P
a: 1.52

q: Would you kindly repeat that for T14Y ?
a: 4.99

q: Now consider A17F and answer again.
a: 3.37
